# measuredTarget: MRGPRX4 (Homo sapiens)
# experimentDescription: MRGPRX4 activation, Fluo-8 Ca2+ FLIPR assay in HEK293T cells stably expressing MRGPRX4
# Assay type: cell-based
# studyConditions: Conc. (Log[M]) −4
# Experimental: In some embodiments, cells were cultured in poly-D-Lys coated blacked walled, clear-bottom 96-well microplates. […] The concentration of solution should be determined according to the protocol settings and experimental needs (e.g., Log[M]=−4, −5, −6, −7, −8, and −9). […] A fluorescent signal baseline was measured using FLIPR®Tetra for 30 s. […] The fluorescent signal would be measured for another 150 s. Activity of each compound was calculated by the fluorescence change (dF/F0). […]
Reported MRGPRX4 activation, fluorescence change (dF/F0), Average by item:
Please give only the number in your answer, with no unit.

Here are 4 compounds together with their reported answers.
- C[C@H](CCCCC(=O)O)[C@H]1CC[C@H]2[C@@H]3CC[C@@H]4C[C@H](O)CC[C@]4(C)[C@H]3CC[C@]12C [compound 84]: 0.287
- CC[C@H]1[C@@H](OC(=O)c2cccc(I)c2)[C@@H]2[C@H](CC[C@]3(C)C([C@H](C)CCC(=O)OC)=CC(=O)[C@@H]23)[C@@]2(C)CCCC[C@@H]12 [3-2]: 0.130
- CC[C@H]1[C@@H](O)[C@@H]2[C@H](CC[C@]3(C)[C@@H]([C@H](C)CCNC(=O)NS(=O)(=O)C4CCC(C)(C)CC4)CC[C@@H]23)[C@@]2(C)CCCC[C@@H]12 [5-5]: 0.083
- CC[C@H]1[C@@H](O)[C@@H]2[C@H](CC[C@]3(C)[C@@H]([C@H](C)CCNC(=O)NS(=O)(=O)c4ccc(C(C)(C)C(=O)O)cc4)CC[C@@H]23)[C@@]2(C)CCCC[C@@H]12 [5-10]: 0.090

In the following, a different compound is considered.
Which MRGPRX4 activation, fluorescence change (dF/F0), Average value belongs to CC[C@H]1[C@@H](O)[C@@H]2[C@H](CC[C@]3(C)[C@@H]([C@H](C)CC#N)CC[C@@H]23)[C@@]2(C)CCCC[C@@H]12 [2-4] ?
0.008

###

Reported MRGPRX4 activation, Average by item:
# measuredTarget: MRGPRX4 (Homo sapiens, UniProt Q96LA9)
# Sequence (Q96LA9 whole entry): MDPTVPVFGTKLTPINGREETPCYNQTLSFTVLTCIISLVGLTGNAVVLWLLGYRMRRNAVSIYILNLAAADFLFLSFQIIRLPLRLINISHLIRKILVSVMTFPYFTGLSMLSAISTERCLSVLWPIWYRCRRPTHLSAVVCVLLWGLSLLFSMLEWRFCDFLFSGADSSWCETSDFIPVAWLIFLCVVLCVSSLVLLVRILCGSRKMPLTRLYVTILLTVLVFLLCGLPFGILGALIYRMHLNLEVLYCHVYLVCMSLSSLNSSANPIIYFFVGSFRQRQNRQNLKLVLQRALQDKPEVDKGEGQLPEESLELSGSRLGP
# experimentDescription: MRGPRX4 activation, Fluo-8 Ca2+ FLIPR assay in HEK293T cells stably expressing MRGPRX4
# Type: cell-based
# Design: key: fluorescence change dF/F0
# studyConditions: E3-9, Conc. (Log[M]) −6.9
# Method: In some embodiments, cells were cultured in poly-D-Lys coated blacked walled, clear-bottom 96-well microplates. […] The concentration of solution should be determined according to the protocol settings and experimental needs (e.g., Log[M]=−4, −5, −6, −7, −8, and −9). […] A fluorescent signal baseline was measured using FLIPR®Tetra for 30 s. […] The fluorescent signal would be measured for another 150 s. Activity of each compound was calculated by the fluorescence change (dF/F0). […]
Please give only the number in your answer, with no unit.

Which MRGPRX4 activation, Average value belongs to CC[C@H]1[C@@H](O)[C@@H]2[C@H](CC[C@]3(C)[C@@H]([C@H](C)CCN=C=S)CC[C@@H]23)[C@@]2(C)CCC(F)(F)C[C@@H]12 ?
0.013

Which MRGPRX4 activation, Average value belongs to CC[C@H]1[C@@H](O)[C@@H]2[C@H](CC[C@]3(C)[C@@H]([C@H](C)CCNC(=O)C(=O)NS(=O)(=O)c4ccc(C(C)(C)CF)cc4)CC[C@@H]23)[C@@]2(C)CCCC[C@@H]12 ?
0.013

Which MRGPRX4 activation, Average value belongs to CC[C@H]1[C@@H](O)[C@@H]2[C@H](CC[C@]3(C)[C@@H]([C@H](C)CCNC(=O)NS(=O)(=O)c4cc(F)cc(F)c4)CC[C@@H]23)[C@@]2(C)CCC(F)(F)C[C@@H]12 ?
0.023

Which MRGPRX4 activation, Average value belongs to CC[C@H]1[C@@H](O)[C@@H]2[C@H](CC[C@]3(C)[C@@H]([C@H](C)CCNS(=O)(=O)C[C@]45CC[C@H](CC4=O)C5(C)C)CC[C@@H]23)[C@@]2(C)CCCC[C@@H]12 ?
0.011

Which MRGPRX4 activation, Average value belongs to CC[C@H]1[C@@H](O)[C@@H]2[C@H](CC[C@]3(C)[C@@H]([C@H](C)CCNC(=O)NS(=O)(=O)c4ccc(Br)cc4OC(F)(F)F)CC[C@@H]23)[C@@]2(C)CC[C@H](F)C[C@@H]12 ?
0.016

Which MRGPRX4 activation, Average value belongs to [2H]C1([2H])CC[C@@]2(C)[C@@H](C1)[C@@H](CC)[C@@H](O)[C@@H]1[C@@H]2CC[C@]2(C)[C@@H]([C@H](C)CCNC(=S)NS(=O)(=O)c3cccs3)CC[C@@H]12 ?
0.015

Which MRGPRX4 activation, Average value belongs to CCOC(=O)C(=O)NCC[C@@H](C)[C@H]1CC[C@H]2[C@@H]3[C@H](O)[C@H](CC)[C@@H]4CCCC[C@]4(C)[C@H]3CC[C@]12C ?
0.013

Which MRGPRX4 activation, Average value belongs to CC[C@H]1[C@@H](O)[C@@H]2[C@H](CC[C@]3(C)[C@@H]([C@H](C)CCNC(=O)NS(=O)(=O)c4cc(F)ccc4F)CC[C@@H]23)[C@@]2(C)CC[C@H](F)C[C@@H]12 ?
0.014

Each recorded value in this set is attributed to patent US20260116910A1.
